Biological target: hGIPR (Homo sapiens, UniProt P48546)
Sequence (P48546 22-466): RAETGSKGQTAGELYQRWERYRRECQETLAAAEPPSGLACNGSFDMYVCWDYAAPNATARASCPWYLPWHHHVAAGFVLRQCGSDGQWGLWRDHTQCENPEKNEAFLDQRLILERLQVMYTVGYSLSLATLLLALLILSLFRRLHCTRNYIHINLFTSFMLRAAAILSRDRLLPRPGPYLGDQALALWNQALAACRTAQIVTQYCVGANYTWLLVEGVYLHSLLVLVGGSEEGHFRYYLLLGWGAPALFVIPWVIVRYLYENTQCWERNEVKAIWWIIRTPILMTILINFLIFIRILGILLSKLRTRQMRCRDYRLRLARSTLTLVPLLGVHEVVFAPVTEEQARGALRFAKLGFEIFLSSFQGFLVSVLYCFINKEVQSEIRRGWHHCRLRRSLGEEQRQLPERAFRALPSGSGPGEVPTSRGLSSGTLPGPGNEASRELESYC
Test: Functional cAMP activation in the presence of 0.1% casein (no HSA);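 also: intracellular cAMP rise after 30 min at 37 °C read by HTRF against a standard curve, scaled between buffer alone (0%) and top control ligand concentration (100%), four-parameter fit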
Assay type: cell-based
Conditions: read-out: Relative cAMP EC50, hGIPR
Starred links: 1 amine or outer side, 2 acyl side, 3 side chain; linkers in the order of their positions; H or OH if unused. Non-standard residues stand in square brackets, D forms with d. Groups on a side chain read outwards from the residue. No end group written: not given here. *: point of attachment. C18 diacid = O=C(O)CCCCCCCCCCCCCCCCC(=O)*; αMePhe(2-F) = C[C@](N)(Cc1ccccc1F)C(=O)O; γGlu = O=C(O)[C@H](CCC(=O)[*:2])N[*:1]; αMe4Pal = C[C@](N)(Cc1ccncc1)C(=O)O; αMeY = C[C@](N)(Cc1ccc(O)cc1)C(=O)O; 4Pal = N[C@@H](Cc1ccncc1)C(=O)O; αMeL = CC(C)C[C@](C)(N)C(=O)O; αMeS = C[C@](N)(CO)C(=O)O; Orn = NCCC[C@H](N)C(=O)O; AEEA = NCCOCCOCC(=O)O; Aib = CC(C)(N)C(=O)O
Entries and their measured pEC50 follow.
Convention used: pEC50 is expressed as -log10 of the molar concentration.

Would you please look over these solved cases?
H-Y[Aib]QGT[αMePhe(2-F)]TSD[4Pal][αMeS]I[αMeL]LD[Orn]K([γGlu-γGlu-C18 diacid])AQ[Aib][Orn]FI[dE][αMeY]LQEGGPSSGEPPPEGSEE-NH2 [Example 585]: 10.10
Y[Aib]QGT[αMePhe(2-F)]TSD[4Pal][αMeS]I[αMeL]LD[Orn]K([γGlu-γGlu-C18 diacid])AQ[Aib][Orn]FI[dE][αMeY]LTEGGPSSGEPPPEGTEE-NH2 [Example 597]: 10.19
H-Y[Aib]QGT[αMePhe(2-F)]TSD[4Pal][αMeS]I[αMeL]LD[Orn]K([γGlu-γGlu-C18 diacid])AA[Aib]EFI[dE][αMeY]LVEGGPSSGEPPPSGS-NH2 [Example 695]: 10.87

input: Given the entry H-Y[Aib]QGT[αMePhe(2-F)]TSD[4Pal]SI[αMeL]LD[Orn]K([AEEA-γGlu-C18 diacid])AQ[αMe4Pal][Orn]FI[dE][αMeY]LIEGGPSSGDPPPETE-NH2 [Example 730] , report its measured pEC50.
output: 10.91

input: Can you look up the measured pEC50 of H-Y[Aib]QGT[αMePhe(2-F)]TSD[4Pal][αMeS]I[αMeL]LD[Orn]K([γGlu-γGlu-C18 diacid])AQ[Aib]QFI[dE][αMeY]LQEGGPSSGEPPPEGTGE-NH2 [Example 529] for me?
output: 10.56
